These entries and their values trace back to patent US9937235B2.

# target-entity: T1, rat PrRP receptor in RC-4B/C cells (rat, UniProt Q64121 1-370)
# T1 construct: whole, on cells; also called the rat receptor; GPR10
# T1 sequence (looked up): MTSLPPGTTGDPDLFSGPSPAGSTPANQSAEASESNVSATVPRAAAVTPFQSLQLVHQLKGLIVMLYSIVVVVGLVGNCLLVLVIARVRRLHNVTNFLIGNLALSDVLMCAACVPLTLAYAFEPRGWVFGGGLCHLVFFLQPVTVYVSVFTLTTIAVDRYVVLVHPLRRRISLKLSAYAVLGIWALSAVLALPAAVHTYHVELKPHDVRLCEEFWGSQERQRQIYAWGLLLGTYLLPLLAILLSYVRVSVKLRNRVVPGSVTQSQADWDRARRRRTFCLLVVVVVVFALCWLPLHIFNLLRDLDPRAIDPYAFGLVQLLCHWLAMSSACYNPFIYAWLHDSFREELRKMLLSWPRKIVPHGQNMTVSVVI
# experimental-protocol: competition with 125I-rat PrRP31 on RC-4B/C cells; Ki by Cheng-Prusoff
Where no end group is shown, it is not given here.

binder: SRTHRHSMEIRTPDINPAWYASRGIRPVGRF-NH2 (also called hPrRP31; analog no; 50) [Human PrRP31]
Ki: 1.54 nM
